SYSTEM_TESTED: T1, AFP158/HLA-A*02:01 complex (human)
T1 construct: flowed as analyte in SPR
RUN_DESCRIPTION: SPR, fold vs AS170036 VL1VH1;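 further: crude scFv muteins immobilised on a sensor chip, peptide–MHC complex passed over at several concentrations, binding then buffer-driven dissociation, KD estimated from on- and off-rates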
EXPERIMENTAL_ENDPOINT: Affinity increase (fold)

>>> endpoint_result("AS170036 VL1VH1-98I108D (scFv, also called 35-AS170036 VL1VH1-98I108D) scFv: QSALTQPRSVSGSPGQSVTISCAGTSSDVGSENYVSWYQQHPGKAPKLMIYQVNKRASGVPDRFSGSKSGNTASLTISGLQAEDEADYYCASYRSSDINIVFGGGTKLTVLGGGGSGGGGSGGGGSEVQLVESGGGLVQPGGSLRLSCAASGFTFSSYAMSWVRQAPGKGLEWVSTINSGTGSPYYADSVKGRFTISRDNSKNTLYLQMNSLRAEDTAVYYCAKNFFDGSWFLDPPAMDYWGQGTLVTVSSHHHHHH")
15.8
>>> endpoint_result("AS170036 VL1VH1-56Y108A (scFv, also called 16-AS170036 VL1VH1-56Y108A) scFv: QSALTQPRSVSGSPGQSVTISCAGTSSDVGSENYVSWYQQHPGKAPKLMIYQVNKRASGVPDRFSGSKSGNTASLTISGLQAEDEADYYCASYRSSDHNIVFGGGTKLTVLGGGGSGGGGSGGGGSEVQLVESGGGLVQPGGSLRLSCAASGFTFSSYAMSWVRQAPGKGLEWVSTINSGTYSPYYADSVKGRFTISRDNSKNTLYLQMNSLRAEDTAVYYCAKNFFDGSWFLAPPAMDYWGQGTLVTVSSHHHHHH")
48.1
>>> endpoint_result("AS170036 VL1VH1-57H98I (scFv, also called 08-AS170036 VL1VH1-57H98I) scFv: QSALTQPRSVSGSPGQSVTISCAGTSSDVGSENYVSWYQQHPGKAPKLMIYQVNKRASGVPDRFSGSKSGNTASLTISGLQAEDEADYYCASYRSSDINIVFGGGTKLTVLGGGGSGGGGSGGGGSEVQLVESGGGLVQPGGSLRLSCAASGFTFSSYAMSWVRQAPGKGLEWVSTINSGTGHPYYADSVKGRFTISRDNSKNTLYLQMNSLRAEDTAVYYCAKNFFDGSWFLGPPAMDYWGQGTLVTVSSHHHHHH")
12.6
